Item-by-item account of inhibition
# ASSAY_TARGET: Furin (Homo sapiens)
# TEST_NAME: furin substrate cleavage inhibition retest – biochemical, fluorescence intensity, confirmation (AID 463180)
# MEASUREMENT_PARAMETERS: Recombinant furin, fluorogenic substrate cleavage, at 50 µM, active compounds read high
Just the number in %, nothing appended.

For record O=C1C=C(c2ccc(Cl)cc2)OC2(CCCC2)O1 the listed inhibition is -10.7

For record Cc1cc(N=CC2=C(O)CC(C)(C)CC2=O)no1 the listed inhibition is -1.24

For record CN1/C(=C\C=C2C(=O)NC(=O)NC2=O)C(C)(C)c2ccccc21 the listed inhibition is 1.52

For record CNC(=O)C1CC(=O)N(CCc2ccc(OC)cc2)C(=Nc2ccc(OC)cc2)S1 (stereo not drawn) the listed inhibition is -13.8

For record COc1cc(/C=C/C(=O)OCC(=O)NC(=O)NC(C)C)ccc1O the listed inhibition is 3.94

For record Cc1cccc(/N=C/C2=C(O)CC(C)(C)CC2=O)n1 the listed inhibition is 13.1

For record COC(=O)C1C(=O)/C(=C/N(C)C)C(=O)CC1(C)C (stereo not drawn) the listed inhibition is 4.91

For record CCOC(=O)C(CC)Sc1nnc(COc2ccc(C)cc2)n1-c1ccccc1 (stereo not drawn) the listed inhibition is -0.94

For record Cc1nc(SCc2ccc(O)c([N+](=O)[O-])c2)n[nH]1 the listed inhibition is 0.762

For record C=CCn1c(O)c(/C=N/NC(=O)c2ccncc2)c(=O)[nH]c1=O the listed inhibition is 5.98

For record COc1cc(S(=O)(=O)Nc2ncccc2C)c(OC)cc1Cl the listed inhibition is -4.1

For record O=C1CC(c2ccccc2)CC(=O)C1=CN1CCCC1 (stereo not drawn) the listed inhibition is 1.13

For record CCOC(=O)c1cc(C)sc1/N=C/C1=C(O)CCCC1=O the listed inhibition is -5.31
